test system: MS2 coat protein; assay: apparent KD of MS2 coat protein, switch OFF state (with FMN for OFF switches, without FMN for ON switches); designed switch direction (-1 OFF switch, 1 ON switch): 1; higher = weaker reporter binding; settings: FMN input: 0 or 200 uM; Eterna round: R93 (includes R88 designs)
Binary classification by apparent KD of MS2 coat protein, with 60 nM as an inclusive lower bound for True; all other cases are False.

Qu. Check if apparent KD of MS2 coat protein >= 60 nM (inclusive). Item: AAAUAAAGGACUGAGGAUAUACCACAUGAAACAUGAGGAUCACCCAUGUAGAAAUACAAAGGGUGGUAGAAGGUAGUCCACAAAC [Same State 2.5 so lets mod hyphema)]
Ans. True

Qu. Check if apparent KD of MS2 coat protein >= 60 nM (inclusive). Item: AUAACACAUGAGGAUCACCCAUGUAGAUACAAGUCAGGAUAUGCAACCUCAUGAAAAAAAGCAGAAGGGACAAUAA [SS 1 Tesla 3]
Ans. True

Qu. Check if apparent KD of MS2 coat protein >= 60 nM (inclusive). Item: AAAUAAAGGACUGAGGAUAUACCACAUGAAACAUGAGGAUCACCCAUGUAGAAAUACAAAGGGUGGUAGAAGGCAGUCCACAAAC [Same State 2.5g ( so lets mod hyphema)]
Ans. False

Qu. Check if apparent KD of MS2 coat protein >= 60 nM (inclusive). Item: GACAAACAUGAGGAUCACCCAUGUAGAAAUAUGGGAGGAUAUACACAGACGAAAGUCAAAGUAGAAGGCCUAAAAG [77%, Mat - Mod of Eli - With 2 more C's]
Ans. True

These entries and their values trace back to the supplement of paper PMC9170038.
